study_target: HLA-A*0201 (human)
assay_protocol: competition with 125I-labelled standard peptide 941.01 for purified HLA-A*0201, gel filtration
attribute_measured: binding affinity ratio (IC50 of standard peptide / IC50 of test peptide)

Some solved entries appear below for comparison.
In [3]: df
Out[3]:
                                     binder  observed
0  RLSEPAKIT (modifications not checked) [… (Kallikrein, position 125)]   -0.0001
1  RLSEPAELT (modifications not checked) [… (PSA, position 121)]    0.0003

I = RAVCGGVLV (modifications not checked) [… (PSA, position 43)]
II = RAVCGGVL (modifications not checked) [RAVCGGVL (PSA, position 43)]
// returns I or II , whichever has the lower binding affinity ratio (IC50 of standard peptide / IC50 of test peptide) Answer by quoting the chosen item's label.
II
